Recorded measurements of IC50, one per entry
- TARGET ENTITY: UniProt P05979
- Sequence (P05979 25-600): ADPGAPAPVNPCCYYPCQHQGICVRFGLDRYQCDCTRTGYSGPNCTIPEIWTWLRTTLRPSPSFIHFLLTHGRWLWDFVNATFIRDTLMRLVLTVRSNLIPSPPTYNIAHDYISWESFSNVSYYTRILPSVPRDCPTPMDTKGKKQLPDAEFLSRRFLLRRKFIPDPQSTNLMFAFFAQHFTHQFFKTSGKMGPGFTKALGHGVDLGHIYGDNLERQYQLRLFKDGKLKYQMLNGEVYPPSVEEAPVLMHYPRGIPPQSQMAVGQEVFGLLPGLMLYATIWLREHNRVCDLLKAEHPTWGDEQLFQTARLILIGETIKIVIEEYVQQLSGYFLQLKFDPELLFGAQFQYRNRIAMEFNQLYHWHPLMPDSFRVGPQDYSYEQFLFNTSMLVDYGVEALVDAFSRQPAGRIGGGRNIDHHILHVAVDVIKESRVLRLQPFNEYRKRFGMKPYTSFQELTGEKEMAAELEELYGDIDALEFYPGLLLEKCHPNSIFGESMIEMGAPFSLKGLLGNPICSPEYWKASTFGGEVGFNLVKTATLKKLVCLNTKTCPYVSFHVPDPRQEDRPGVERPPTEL

# example entries with known answers
COMPOUND STRUCTURE: O=S(=O)(O)Cc1ccccc1Nc1c(Cl)cccc1Cl
TARGET ENTITY: UniProt P05979
MEASURED: > 100 µM
//
COMPOUND STRUCTURE: Fc1cc(Cl)c(Nc2ccc(F)cc2Cc2nnn[nH]2)c(Cl)c1
TARGET ENTITY: UniProt P05979
MEASURED: > 100 µM
//
COMPOUND STRUCTURE: O=C(O)C(F)(F)c1cc(F)ccc1Nc1c(Cl)cc(F)cc1Cl
TARGET ENTITY: UniProt P05979
MEASURED: > 100 µM

// recorded IC50 for O=C(O)C(F)(F)c1cc(F)ccc1Nc1c(Cl)cccc1Cl : > 100 µM

// recorded IC50 for O=C(O)Cc1ccccc1Nc1c(Cl)cc(F)cc1Cl : 0.67 µM

// recorded IC50 for O=C(O)C(F)(F)c1ccccc1Nc1c(Cl)cc(F)cc1Cl : > 100 µM

// recorded IC50 for O=C(O)Cc1cc(F)ccc1Nc1c(Cl)cc(F)cc1Cl : 0.73 µM

###

- TARGET ENTITY: COX-2 (human recombinant) (Homo sapiens)
- Sequence (P35354 18-604): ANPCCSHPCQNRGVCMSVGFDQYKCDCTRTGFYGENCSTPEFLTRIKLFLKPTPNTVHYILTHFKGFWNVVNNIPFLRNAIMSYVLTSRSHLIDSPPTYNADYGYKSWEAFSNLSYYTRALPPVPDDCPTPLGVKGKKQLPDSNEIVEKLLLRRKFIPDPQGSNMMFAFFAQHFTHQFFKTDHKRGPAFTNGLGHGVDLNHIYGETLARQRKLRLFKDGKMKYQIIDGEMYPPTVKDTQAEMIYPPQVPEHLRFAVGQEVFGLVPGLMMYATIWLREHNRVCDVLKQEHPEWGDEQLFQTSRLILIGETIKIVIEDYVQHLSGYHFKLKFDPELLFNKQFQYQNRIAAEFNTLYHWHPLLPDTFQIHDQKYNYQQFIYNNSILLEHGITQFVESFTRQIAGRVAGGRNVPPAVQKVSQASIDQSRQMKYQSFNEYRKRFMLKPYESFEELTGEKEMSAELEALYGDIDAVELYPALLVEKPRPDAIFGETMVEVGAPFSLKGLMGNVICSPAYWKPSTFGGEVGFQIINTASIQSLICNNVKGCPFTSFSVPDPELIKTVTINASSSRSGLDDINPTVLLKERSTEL
- ASSAY TEXT: COX Fluorescent Inhibitor Screening Assay Kit, COX-2
REPORTED PROPERTY: IC50 (µM)

COMPOUND STRUCTURE: O=C(O)Cc1ccccc1Nc1c(Cl)cc(F)cc1Cl
MEASURED: 27
--
COMPOUND STRUCTURE: O=C(O)C(F)(F)c1cc(F)ccc1Nc1c(Cl)cccc1Cl
MEASURED: 21
--
COMPOUND STRUCTURE: O=C(O)Cc1cc(F)ccc1Nc1c(Cl)cc(F)cc1Cl
MEASURED: 26
